Source listed as PubChem BioAssay (NCI).

Tested on: MDA-MB-231 breast
Test: NCI-60 one-dose screen, 48 h (100 = growth as untreated, 0 = no growth, -100 = all killed)
Settings: 10 µM unless noted
Compounds without any hit were thinned out: in the full panel of roughly 83,000, 20% have a hit.
Parameter: growth. Scope: all listed entries.
Please give a number only; it is taken to be in %.

| input_smiles | result_units | growth |
| --- | --- | --- |
| O=C(Nc1nc2ccccc2s1)c1cc(-c2ccc(F)cc2)n2nc(-c3ccccc3)cc2n1 | % | 64.6 |

Attention now shifts to the item below.
Name the reported growth value associated with the compound Cc1ccc(NC(=O)Nc2ccc(-c3cccnc3)cc2N2CCC(CO)CC2)cc1
9.31

---

Parameter: growth. Scope: all listed entries.
System: HCT-116 colon
Test: NCI-60 one-dose screen, 48 h (100 = growth as untreated, 0 = no growth, -100 = all killed)
Conditions: 10 µM unless noted
The panel holds about 83,000 compounds, 20% with a hit somewhere; the sample as a whole holds those more often. The source made the active and inactive calls. Rule for the calls: active = growth percent below 10; inactive = the rest.

| molecule | tgt | measured_property | readout_value |
| --- | --- | --- | --- |
| COc1ccc2nccc(/C=C/c3ccnc4ccc(OC)cc34)c2c1 | HCT-116 colon | growth | 102% (inactive) |
| O[C@@H]1Cc2ccc3ccccc3c2N[C@H](c2ccoc2)C1 | HCT-116 colon | growth | 105% (inactive) |
| CCC1=C(c2ccc(OC)cc2)C(C)(C)Oc2cc(O)c(CN3CCCC3)cc21 | HCT-116 colon | growth | 46.9% (inactive) |
| COC(=O)C[C@@H]1CC=CC(=O)/C1=C(O)/C=C/c1ccccc1 | HCT-116 colon | growth | -92.2% (active) |
| O=c1[nH]c(=O)n(C2CC(O)C(CO)O2)cc1C(F)(F)F (configuration not stated) | HCT-116 colon | growth | 39.4% (inactive) |
| C=C(C)[C@H]1CC/C(C)=C/CC[C@]2(C)O[C@H]2CC/C(C=O)=C\C1O (some centres not stated) | HCT-116 colon | growth | 105% (inactive) |

Name the reported growth value associated with the molecule COc1ccc(-c2c3c(nn2-c2ccc(N)cc2)CCc2cnoc2-3)cc1OC
84.4% (inactive)

Name the reported growth value associated with the molecule Cc1[nH]n(C(N)=S)c(=O)c1N=Nc1ccc(F)c(Cl)c1
95.5% (inactive)

Name the reported growth value associated with the molecule COc1ccc(C(=O)Nc2nc(-c3ccc(Cl)cc3)cs2)cc1
109% (inactive)

Name the reported growth value associated with the molecule COc1cc(C(=O)/C=C/c2cccnc2Nc2ccccc2)cc(OC)c1OC
-94.9% (active)

Name the reported growth value associated with the molecule COC(=O)CCC1=C(CC(=O)OC)C(C)=N/C1=C\c1[nH]c(-c2ccc[nH]2)cc1OC
9.33% (active)

Name the reported growth value associated with the molecule CCOC(=O)C(Cc1ccccc1)(C(=O)OCC)C(Br)C(=O)c1ccccc1 (configuration not stated)
53.3% (inactive)

---

System: RPMI-8226 leukemia
Experiment: NCI-60 one-dose screen, 48 h
Settings: 10 µM unless noted
Compounds without any hit were thinned out: in the full panel of roughly 83,000, 20% have a hit. Activity calls are given as the source filed them. Rule for the calls: active = growth percent below 10; inactive = the rest.
Outcome (select one): yes (1) = active, no (0) = inactive

Consider the following illustrative entries.
| molecule | answer_label |
| --- | --- |
| CCCCCCCCCCSc1ncnc2nc[nH]c12 | no (0) |
| O=C1NCC(Nc2ccc(Br)cc2Cl)C(=O)N1 (configuration not stated) | no (0) |
| NC(N)=NN=c1c(=O)c2ccccc2c1=O | no (0) |
| COc1ccc2nccc(/C=C/c3ccnc4ccc(OC)cc34)c2c1 | yes (1) |
| Cc1cc(O)c2c(c1)C[C@H]1[C@@H]3CC[C@H]4CC(=O)CC[C@]4(C)[C@H]3CC(=O)[C@]21C | no (0) |
| CC(c1cc(Cl)ccc1O)c1cc(Cl)ccc1O | no (0) |
| O=C(OC[C@H]1O[C@H](OC(=O)c2cc(O)c(O)c(OC(=O)c3cc(O)c(O)c(O)c3)c2)[C@H](OC(=O)c2cc(O)c(O)c(OC(=O)c3cc(O)c(O)c(O)c3)c2)[C@@H](OC(=O)c2cc(O)c(O)c(OC(=O)c3cc(O)c(O)c(O)c3)c2)[C@@H]1OC(=O)c1cc(O)c(O)c(OC(=O)c2cc(O)c(O)c(O)c2)c1)c1cc(O)c(O)c(OC(=O)c2cc(O)c(O)c(O)c2)c1 | no (0) |
| CCC(O)C(C)(C)C (configuration not stated) | no (0) |

So what was the verdict on CSc1ccc2c(c1)N(CCC1CCCCN1C)c1ccccc1S2 (configuration not stated) in this test?
no (0)

So what was the verdict on Nc1ccc(C2=NN(c3ccccc3)C(c3ccc(Cl)cc3)C2)cc1 (configuration not stated) in this test?
yes (1)

So what was the verdict on Oc1ccccc1/C=N\Nc1ccccc1 in this test?
no (0)

So what was the verdict on CN(C)c1ccc2c(c1)/C(=N/O)c1ccccc1-2 in this test?
no (0)
